Could you please report measured Pre-emerge crop damage CORN (phytotoxicity rating) for the items listed next?
- System: field corn (Zea mays L., var. Dekalb 535, CORN)
- ASSAY NOTES: Pre-emerge test, crop damage field corn
- Format: in vivo
- MEASUREMENT CONTEXT: var. Dekalb 535, Zea mays (field corn), in vivo, 14 days

For Cn1nc(-c2c(F)cc3c4c2NC(=O)CN4C(=O)CO3)c(Cl)c1OC(F)F [1-25] the compound record lists Pre-emerge crop damage CORN (phytotoxicity rating) as 99

For Cn1nc(-c2c(F)cc3c4c2NC(=O)C(C)(C)N4C(=O)CO3)c(Cl)c1C(F)(F)F [1-15] the compound record lists Pre-emerge crop damage CORN (phytotoxicity rating) as 60

For C[C@H]1Oc2cc(F)c(-c3nn(C)c(OC(F)F)c3Cl)c3c2N(CC(=O)N3)C1=O [1-55] the compound record lists Pre-emerge crop damage CORN (phytotoxicity rating) as 20
